In this section, each of the molecules is paired with its reported log10 of GI50.
test system: MV4-11; assay: Cell proliferation inhibition (CellTiter-Glo), MV4-11; format: cell-based; conditions: Homo sapiens, MV4-11, 72 h, MV4-11 cells
OBSERVED PROPERTY: log10 of GI50 (log10 of the value in nM)

MOLECULE: CC(C)N(C(=O)c1cc(F)ccc1Oc1nncnc1N1CC2(CCN(C[C@H]3CC[C@@]4(CCC(=O)N4)CC3)CC2)C1)C(C)C
log10 of GI50: 2.29
--
MOLECULE: [2H]C([2H])([2H])C1(C([2H])([2H])[2H])C[C@]2(CC[C@@H](CN3CCC4(CC3)CN(c3ncnnc3Oc3ccc(F)cc3C(=O)N(C(C)C)C(C)C)C4)CC2)NC1=O
log10 of GI50: 1.10
--
MOLECULE: CC(C)N(C(=O)c1cc(F)ccc1Oc1nncnc1N1CC2(CCN(C[C@H]3CC[C@]4(CC3)CC(C)(C)C(=O)N4)CC2)C1)C1CC1
log10 of GI50: 1.55
--
MOLECULE: CCN(C(=O)c1cc(F)ccc1Oc1nncnc1N1CC2(CCN(C[C@H]3CC[C@]4(CC3)CC(=C(C)C)C(=O)N4)CC2)C1)C(C)C
log10 of GI50: 1.54
--
MOLECULE: CC(C)N(C(=O)c1cc(F)ccc1Oc1nncnc1N1CC2(CCN(C[C@H]3CC[C@]4(CC3)CC(C(C)(C)O)C(=O)N4)CC2)C1)C(C)C (stereo partly drawn) [Example 59-1]
log10 of GI50: 1.18
--
MOLECULE: CCN(C(=O)c1cc(F)ccc1Oc1nncnc1N1CC2(CCN(C[C@H]3CC[C@]4(CC3)C[C@@H](COC)C(=O)N4)CC2)C1)C(C)C
log10 of GI50: 1.18

---

target: Menin/MLL-4-43 peptide interaction (Homo sapiens (Human), UniProt O00255); experiment: Menin-MLL interaction inhibitory activity assay (fluorescence polarization competition); details: FITC-MLL4-43-peptide, Menin recombinant protein
Sequence (O00255 whole entry, species assumed): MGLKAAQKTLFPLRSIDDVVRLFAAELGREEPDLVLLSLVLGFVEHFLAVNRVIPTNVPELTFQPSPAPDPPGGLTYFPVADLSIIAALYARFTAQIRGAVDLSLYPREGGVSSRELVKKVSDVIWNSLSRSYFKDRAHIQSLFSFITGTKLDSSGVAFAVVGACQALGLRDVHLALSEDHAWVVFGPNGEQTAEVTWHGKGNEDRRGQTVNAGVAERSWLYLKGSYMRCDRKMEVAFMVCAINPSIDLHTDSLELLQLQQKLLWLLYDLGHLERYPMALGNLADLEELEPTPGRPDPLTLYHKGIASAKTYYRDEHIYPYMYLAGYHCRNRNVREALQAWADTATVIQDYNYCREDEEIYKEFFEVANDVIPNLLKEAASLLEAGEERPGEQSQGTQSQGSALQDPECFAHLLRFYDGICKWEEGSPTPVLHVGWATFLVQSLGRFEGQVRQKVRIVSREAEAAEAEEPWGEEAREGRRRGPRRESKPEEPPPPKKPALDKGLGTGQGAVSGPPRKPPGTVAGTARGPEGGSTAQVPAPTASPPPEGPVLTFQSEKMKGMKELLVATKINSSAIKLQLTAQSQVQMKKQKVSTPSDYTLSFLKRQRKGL
Catalogue of IC50 values
OBSERVED PROPERTY: IC50 (nM)

COMPOUND: CC(C)N(C(=O)c1cc(F)ccc1Oc1cncnc1N1CC2(CCN(CC3CC4CCC3CC43COC(=O)N3)CC2)C1)C(C)C (single isomer, unassigned) [Example 51-2]
UNIT OF MEASURE: nM
MEASURED: 47.6

COMPOUND: CC(C)N(C(=O)c1cc(F)ccc1Oc1nncnc1N1CC2(CCN(CC3CCC4(CC3)CC3(CC3)C(=O)N4)CC2)C1)C(C)C (single isomer, unassigned) [Example 44-1]
UNIT OF MEASURE: nM
MEASURED: 48.8

COMPOUND: CC(C)N(C(=O)c1cc(F)ccc1Oc1cncnc1N1CC2(CCN(CC3CC4CCC3CC43COC(=O)N3)CC2)C1)C(C)C (single isomer, unassigned) [Example 51-2b]
UNIT OF MEASURE: nM
MEASURED: 141

COMPOUND: COC[C@@H]1C[C@]2(CC[C@@H](CN3CCC4(CC3)CN(c3ncncc3Oc3ccc(F)cc3C(=O)N(C(C)C)C(C)C)C4)CC2)NC1=O
UNIT OF MEASURE: nM
MEASURED: 4.4

COMPOUND: CCN(C(=O)c1cc(F)ccc1Oc1cncnc1N1CC2(CCN(CC3CC4CCC3CC43CCC(=O)N3)CC2)C1)C(C)C (single isomer, unassigned) [Example 3-2]
UNIT OF MEASURE: nM
MEASURED: 113

COMPOUND: [2H]C([2H])([2H])C1C[C@]2(CC[C@@H](CN3CCC4(CC3)CN(c3ncnnc3Oc3ccc(F)cc3C(=O)N(C(C)C)C(C)C)C4)CC2)NC1=O (single isomer, unassigned) [Example 43-2]
UNIT OF MEASURE: nM
MEASURED: 48.7

COMPOUND: CCN(C(=O)c1cc(F)ccc1Oc1nncnc1N1CC2(CCN(C[C@H]3CC[C@]4(CC3)CC(C(C)(C)O)C(=O)N4)CC2)C1)C(C)C (stereo partly drawn) [Example 58-1]
UNIT OF MEASURE: nM
MEASURED: 2.9

COMPOUND: CCN(C(=O)c1cc(F)ccc1Oc1nncnc1N1CC2(CCN(C[C@H]3CC[C@]4(CC3)CC(C(C)(C)O)C(=O)N4)CC2)C1)C(C)C (single isomer, unassigned) [Example 58-1a]
UNIT OF MEASURE: nM
MEASURED: 5.4

COMPOUND: CCN(C(=O)c1cc(F)ccc1Oc1nncnc1N1CC2(CCN(C[C@H]3CC[C@]4(CC3)CC(C)(C)C(=O)N4)CC2)C1)C(C)C
UNIT OF MEASURE: nM
MEASURED: 7.4

COMPOUND: CCN(C(=O)c1cc(F)ccc1Oc1cncnc1N1CC2(CCN(C[C@H]3CC[C@]4(CC3)CC(C)(C)C(=O)N4)CC2)C1)C(C)C
UNIT OF MEASURE: nM
MEASURED: 9.8

COMPOUND: [2H]C([2H])([2H])C1C[C@]2(CC[C@@H](CN3CCC4(CC3)CN(c3ncnnc3Oc3ccc(F)cc3C(=O)N(CC)C(C)C)C4)CC2)NC1=O (single isomer, unassigned) [Example 42-2]
UNIT OF MEASURE: nM
MEASURED: 44.5

COMPOUND: CC(C)N(C(=O)c1cc(F)ccc1Oc1nncnc1N1CC2(CCN(C[C@H]3CC[C@@]4(CCC(=O)N4)CC3)CC2)C1)C1CC1
UNIT OF MEASURE: nM
MEASURED: 167

COMPOUND: [2H]C([2H])([2H])C1C[C@]2(CC[C@@H](CN3CCC4(CC3)CN(c3ncnnc3Oc3ccc(F)cc3C(=O)N(CC)C(C)C)C4)CC2)NC1=O (single isomer, unassigned) [Example 42-1]
UNIT OF MEASURE: nM
MEASURED: 15.3

COMPOUND: CC(C)N(C(=O)c1cc(F)ccc1Oc1nncnc1N1CC2(CCN(CC3CC4CCC3CC43CCC(=O)N3)CC2)C1)C(C)C (stereo not drawn) [Example 15-1]
UNIT OF MEASURE: nM
MEASURED: 90.9

COMPOUND: CC(C)N(C(=O)c1cc(F)ccc1Oc1cncnc1N1CC2(CCN(CC3CC4CCC3CC43COC(=O)N3)CC2)C1)C(C)C (single isomer, unassigned) [Example 51-1b]
UNIT OF MEASURE: nM
MEASURED: 46.7

COMPOUND: [2H]C([2H])([2H])C1(C([2H])([2H])[2H])C[C@]2(CC[C@@H](CN3CCC4(CC3)CN(c3ncnnc3Oc3ccc(F)cc3C(=O)N(C(C)C)C(C)C)C4)CC2)NC1=O
UNIT OF MEASURE: nM
MEASURED: 6.4

COMPOUND: [2H]C([2H])([2H])C1(C([2H])([2H])[2H])C[C@]2(CC[C@@H](CN3CCC4(CC3)CN(c3ncnnc3Oc3ccc(F)cc3C(=O)N(CC)C(C)C)C4)CC2)NC1=O
UNIT OF MEASURE: nM
MEASURED: 8.4

COMPOUND: CC(C)N(C(=O)c1cc(F)ccc1Oc1cncnc1N1CC2(CCN(CC3CC4CCC3CC43CCC(=O)N3)CC2)C1)C(C)C (single isomer, unassigned) [Example 13-2b]
UNIT OF MEASURE: nM
MEASURED: 142

COMPOUND: CC(C)N(C(=O)c1cc(F)ccc1Oc1cncnc1N1CC2(CCN(CC3CC4CCC3CC43CCC(=O)N3)CC2)C1)C(C)C (single isomer, unassigned) [Example 13-2]
UNIT OF MEASURE: nM
MEASURED: 24.9

COMPOUND: CCN(C(=O)c1cc(F)ccc1Oc1nncnc1N1CC2(CCN(C[C@H]3CC[C@]4(CC3)CC(C)C(=O)N4)CC2)C1)C(C)C (single isomer, unassigned) [Example 40-1]
UNIT OF MEASURE: nM
MEASURED: 14.8

COMPOUND: CC(C)N(C(=O)c1cc(F)ccc1Oc1nncnc1N1CC2(CCN(C[C@H]3CC[C@]4(CC3)CC(C(C)(C)O)C(=O)N4)CC2)C1)C(C)C (single isomer, unassigned) [Example 59-1b]
UNIT OF MEASURE: nM
MEASURED: 10.3
